Assay: MultiTox-Fluor Cytotoxicity Assay - LYMP1-003 - Dead Cells (AID 961);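 also: cells exposed to compound for 16 h at 37 °C; nearly all actives have a fitted effect of over 70% in size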
Conditions: LYMP1-003 lymphoblastoid cells, dead-cell protease fluorescence; series mostly up to 92.2 µM
Active and inactive are the calls of the source. Calls follow the shape of the dose curve; as a rule, active = well fitted cell-killing curve with a large enough effect; inconclusive = small, poorly fitted or top-dose-only effect, or effect the other way; inactive = flat fitted curve, though single readings scatter. Numbered stars: 1 amine (or outer) side, 2 acyl side, 3 side chain; on linkers, the order of the positions; unused ones are H or OH. Bridge positions count the residues as written; N and C are the ends. Square brackets hold non-standard residues; d marks the D form. Peptide text beside a SMILES is read from it. I, II: the chains in the order shown. Actinocin(9to1) = Cc1c2oc3c(C)ccc(C(=O)[*:1])c3nc-2c(C(=O)[*:2])c(N)c1=O; NMeV = CN[C@H](C(=O)O)C(C)C; Sar = CNCC(=O)O
Give one outcome, nothing more. List: y (active), n (inactive)

Query: # outcome recorded in this test, key = Cc1c2oc3c(C)ccc(C(=O)N[C@@H]4C(=O)N[C@H](C(C)C)C(=O)N5CCC[C@H]5C(=O)N(C)CC(=O)N(C)[C@@H](C(C)C)C(=O)O[C@@H]4C)c3nc-2c(C(=O)N[C@@H]2C(=O)N[C@H](C(C)C)C(=O)N3CCC[C@H]3C(=O)N(C)CC(=O)N(C)[C@@H](C(C)C)C(=O)O[C@@H]2C)c(N)c1=O (I: T[dV]P[Sar][NMeV] / II: T[dV]P[Sar][NMeV]; ester I:1-I:C, II:1-II:C; linker I:N-II:N via Actinocin(9to1))
Reply: y

====

System: DFO2036
Assay: qHTS profiling for inhibitors of Plasmodium falciparum proliferation (AID 504749);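 also: 0% = DMSO vehicle and full inhibition = artemisinin control; nearly all actives have a fitted effect of over 60% in size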
Details: P. falciparum in erythrocytes, SYBR Green DNA, 72 h; series mostly up to 28.7 µM
Records with an inconclusive call do not appear. Calls of active or inactive are those of the source. Calls come from the whole dose curve; as a rule, active = well fitted inhibition curve with a large enough effect; inconclusive = small, poorly fitted or top-dose-only effect; inactive = flat fitted curve, though single readings scatter.
Give one outcome, nothing more. List: true (1) for active, false (0) for inactive

Reference set (3 entries):
# molecule, label-value
rows = [
    ("Cc1ncc(CSSCc2cnc(C)c(O)c2CO)c(CO)c1O", "false (0)"),
    ("COc1cc2c(cc1OC)C(=O)C(CC1CCN(Cc3ccccc3)CC1)C2 (centres undefined)", "false (0)"),
    ("C[C@H]1C[C@H]2[C@@H]3CCC4=CC(=O)C=C[C@]4(C)[C@@]3(Cl)[C@@H](O)C[C@]2(C)[C@@]1(O)C(=O)CO", "false (0)"),
]

Query: # outcome recorded in this test, key = CCOC(=O)n1ccn(C)c1=S
Reply: false (0)

Query: # outcome recorded in this test, key = C[C@@H](CN(C)C)CN1c2ccccc2Sc2ccccc21
Reply: false (0)

Query: # outcome recorded in this test, key = CCCCCCCCCCCCCCCCCC(=O)OCC(O)CO (centres undefined)
Reply: false (0)

====

Test system: astro
Assay: Drug repurposing screens with cells derived from glioblastoma tumor samples (AID 1345199); also: nearly all actives have a fitted effect of over 40% in size
Conditions: viability, ATP luminescence, 48 h; series mostly up to 45.9 µM
Description: CD133+ cells were isolated from GBM patient biopsies and cultured as neurospheres. Neurospheres from four patients were used to screen the NCATS pharmaceutical collection (NPC) library of approved drugs and bioactive compounds. […] The neurospheres were incubated with drugs for 48 hours in 1536-well format, then assayed with an ATP content cell viability assay. […]
Results filed as inconclusive are left out. Active and inactive are the calls of the source. Calls come from the whole dose curve; as a rule, active = well fitted inhibition curve with a large enough effect; inconclusive = small, poorly fitted or top-dose-only effect; inactive = flat fitted curve, though single readings scatter.
Give one outcome, nothing more. List: 1 for active, -1 for inactive

Reference set (8 entries):
# compound, tgt, label-value
data = [
    ("CCCCCCCCCCCCCCCCOP(=O)([O-])OCC[N+](C)(C)C", "astro", -1),
    ("COC(=O)CCc1ccc(OCC(O)CNC(C)C)cc1 (configuration not stated)", "astro", -1),
    ("CC(=O)OCC(=O)[C@@]1(OC(C)=O)[C@@H](C)C[C@H]2[C@@H]3C[C@H](F)C4=CC(=O)C=C[C@]4(C)[C@@]3(F)[C@@H](O)C[C@@]21C", "astro", -1),
    ("NCCCC[C@H](N[C@@H](CCc1ccccc1)C(=O)O)C(=O)N1CCC[C@H]1C(=O)O", "astro", -1),
    ("CN1CCN(C(c2ccccc2)c2ccccc2)CC1", "astro", -1),
    ("CC1(C)O[C@@H]2[C@@H](CO[C@@]3(COS(N)(=O)=O)OC(C)(C)O[C@@H]23)O1", "astro", -1),
    ("CCN(CC)C(=O)N1CCN(C)CC1", "astro", -1),
    ("COc1cc(NS(C)(=O)=O)ccc1Nc1c2ccccc2nc2ccccc12", "astro", 1),
]

Query: # outcome recorded in this test, key = CCOC(=O)c1cccc(N)c1
Reply: -1

====

System: PA-1
Assay: Primary qHTS to identify gynecologic anti-cancer compounds using libraries of approved drugs and bioactive compounds (AID 1345084); also: nearly all actives have a fitted effect of over 55% in size
Settings: Gynecologic cancer cell panel viability, ATPlite luminescence, 48 h; series mostly up to 57.5 µM
Records with an inconclusive call do not appear. The source made the active and inactive calls. Calls come from the whole dose curve; as a rule, active = well fitted cell-killing curve with a large enough effect; inconclusive = small, poorly fitted or top-dose-only effect, or effect the other way; inactive = flat fitted curve, though single readings scatter.
Give one outcome, nothing more. List: true (active), false (inactive)

Reference set (5 entries):
# input-smiles, label-value
records = [
    ("CN(C)CCOc1ccccc1Cc1ccccc1", "false"),
    ("CC(=O)Oc1ccc(C(=C2CCCCC2)c2ccc(OC(C)=O)cc2)cc1", "false"),
    ("COc1c2occc2c(OC)c2c(=O)cc(C)oc12", "false"),
    ("Cc1ccc(Nc2c(F)cccc2Cl)c(CC(=O)O)c1", "false"),
    ("CC(C)n1nc(-c2cc3cc(O)ccc3[nH]2)c2c(N)ncnc21", "true"),
]

Query: # outcome recorded in this test, key = CN1CCC[C@@H]1c1cccnc1
Reply: false

====

Assay: qHTS Assay for Identification of Small Molecule Inducers of Hypoxia Response (AID 2120); also: 0% is about no effect
Conditions: hypoxia response reporter cells, beta-lactamase ratio readout; series mostly up to 104 µM
Records with an inconclusive call do not appear. Active and inactive are the calls of the source. Calls come from the whole dose curve; as a rule, active = well fitted curve in the direction sought with a large enough effect in the signal ratio, with a control signal flat (not every such curve was filed as active); inconclusive = small, poorly fitted or top-dose-only effect, or a change in a side signal; inactive = no such curve, though single readings can be large or run the other way; the % refers to the signal ratio.
measured-quantity: outcome

Please review the following examples before continuing.
# compound, outcome
records = [
    ("CC(=O)O[C@]1(C(C)=O)CC[C@H]2[C@@H]3C[C@H](C)C4=CC(=O)CC[C@]4(C)[C@H]3CC[C@@]21C", "inactive"),
    ("COC1=CC(=O)C[C@@H](C)[C@]12Oc1c(Cl)c(OC)cc(OC)c1C2=O", "inactive"),
    ("C=CCc1ccc(O)c(OC)c1", "inactive"),
    ("CC(O)C(=O)O (configuration not stated)", "inactive"),
    ("O=c1ccc2ccccc2o1", "inactive"),
]

Query: What does the data say about its outcome? Entry: Nc1ccc(C(=O)O)cc1
Reply: inactive

Query: What does the data say about its outcome? Entry: CC(=O)Oc1ccc(C(c2ccc(OC(C)=O)cc2)c2ccccn2)cc1
Reply: inactive

====

Experiment: Validation screen for small molecules that induce genotoxicity in human embryonic kidney (HEK293T) cells expressing luciferase-tagged ELG1 (AID 493106); also: 0% is about no effect
Settings: luminescence; series mostly up to 46.1 µM
Results filed as inconclusive are left out. The source made the active and inactive calls. The call rests on the fitted dose curve; in most records, active means well fitted activation curve with a large enough effect; inconclusive means small, poorly fitted or top-dose-only effect; inactive means no such curve, though single readings can be large or run the other way.
measured-quantity: outcome

# compound, outcome
data = [
    ("O=C(O)c1cc2cc(Cc3cccnc3)ccc2o1", "inactive"),
    ("C[C@]12CC[C@@H]3c4ccc(O)cc4CC[C@H]3[C@@H]1CC[C@@H]2O", "inactive"),
    ("C1CCc2nnnn2CC1", "inactive"),
    ("CNCCC(Oc1ccccc1C)c1ccccc1 (stereo unspecified)", "inactive"),
    ("N[C@@H](Cc1cnc[nH]1)C(=O)O", "inactive"),
]

Let us examine a further case.
Query: What does the data say about its outcome? Entry: CNCCC=C1c2ccccc2CCc2ccccc21
Reply: inactive

====

Assay: qHTS profiling for inhibitors of Plasmodium falciparum proliferation (AID 504749);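 also: 0% = DMSO vehicle and full inhibition = artemisinin control; nearly all actives have a fitted effect of over 60% in size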
Details: P. falciparum in erythrocytes, SYBR Green DNA, 72 h; at 12.8 µM (top of the series); parasite line B
Records with an inconclusive call do not appear.
measured-quantity: activity, negative = inhibition (%)
Kindly answer with a numeric value in %, unit omitted.

Please review the following examples before continuing.
# input-smiles, activity, negative = inhibition / %
measured = [
    ("CCN(CCCc1ccccc1)CCCc1ccccc1", -11),
    ("CC(=O)c1ccc2c(c1)N(CCCN1CCC(CCO)CC1)c1ccccc1S2", 0.0996),
]

Query: What does the data say about its activity, negative = inhibition? Entry: CN(C)CCCOc1nn(Cc2ccccc2)c2ccccc12
Reply: -0.662

Query: What does the data say about its activity, negative = inhibition? Entry: CCCCOc1ccc(C(=O)CCN2CCCCC2)cc1
Reply: -20.7

Query: What does the data say about its activity, negative = inhibition? Entry: CN(C(=O)CN(CCO)CC(=O)N(C)C(C)(C)Cc1ccccc1)C(C)(C)Cc1ccccc1
Reply: -5.35

Query: What does the data say about its activity, negative = inhibition? Entry: Cc1ccnc(NS(=O)(=O)c2ccc(N)cc2)n1
Reply: -14.9

Query: What does the data say about its activity, negative = inhibition? Entry: COc1c2occc2c(OC)c2c(=O)cc(C)oc12
Reply: 4.52
